Source: patent US20200199214A1

- system_tested: T1, cynomolgus IL-1 beta (Sino Biological 90010-CNAE) (cynomolgus, UniProt P79182 117-268)
- T1 sequence (looked up): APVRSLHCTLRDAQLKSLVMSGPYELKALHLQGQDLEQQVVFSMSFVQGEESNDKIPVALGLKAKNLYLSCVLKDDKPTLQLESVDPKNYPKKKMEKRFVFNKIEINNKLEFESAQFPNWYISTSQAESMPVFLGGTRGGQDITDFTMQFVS
- experiment_description: SPR, Fab captured via anti-Fab antibody, cynomolgus IL-1beta injected, 1:1 Langmuir fit
Recorded t½ for the following binders
Answer in h, number only, no unit symbol.

bispecific anti-VEGF/anti-IL-1beta Fab fragment 1HVL5.15 (Fab, V domains shown) VH: DETLVESGGGLVKPGGSLRLSCAAEGMVFKWNDMSWVRQAPGKGLEWVGSISKKGDHKYLNTKFIGRFTISRDNEKDTLYLQMNSLRAEDTAVYYCAKDVGFFDIWGQGTLVTVSS VL: AIYMHQEPSSLSASVGDRVTITCHGSYWLSSLMAWYQQKPGKAPKLLIYDAKYKHLGVPSRFSGSGSHEDYTLTISSLQPEDFATYYCQQYRYHPYTFGHGTKVEIKR	1.63
bispecific anti-VEGF/anti-IL-1beta Fab fragment 1HVL12.85 (Fab, V domains shown) VH: DEQLVESGGGLVKPGGSLRLSCAAEGMVFKWNDMSWVRQAPGKGLEWVGSISKKGDHKYLNTKFIGRFTISRDNEKDTLYLQMNSLRAEDTAVYYCAKDVGFFDIWGQGTLVTVSS VL: AIYMHQEPSSLSASVGDRVTITCHGSYWLSSLVAWYQQKPGKAPKLLIYDAKYKHLGVPSRFSGSKEDQEFTLTISSLQPEDFATYYCQQYRYHPYTFGHGTKVEIKR	2.95

Here's the next entry for you.
[in] Please report the measured t½ for bispecific anti-VEGF/anti-IL-1beta Fab fragment RO7200394 (Fab, V domains shown, same variable domains as 1HVL12.85; also called R07200394) VH: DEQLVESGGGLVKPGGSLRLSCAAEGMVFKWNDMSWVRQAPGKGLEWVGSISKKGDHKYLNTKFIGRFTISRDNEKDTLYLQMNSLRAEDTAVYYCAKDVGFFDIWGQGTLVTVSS VL: AIYMHQEPSSLSASVGDRVTITCHGSYWLSSLVAWYQQKPGKAPKLLIYDAKYKHLGVPSRFSGSKEDQEFTLTISSLQPEDFATYYCQQYRYHPYTFGHGTKVEIKR
[out] 2.43
